# Test system: SW1088 (Human neuroblastoma)
# ASSAY NAME: CellTiterGlo cell viability assay
# Assay type: cell-based
pIC50: −log10 of the molar value.
PROPERTY: pIC50

>>> recorded_measurement("Cc1cccc(/C=N/Nc2cc(N3CCOCC3)nc(OCCc3ccccn3)n2)c1")
"< 5.00"

====

# Tested on: SUDHL-6 (Human Diffuse Large B Cell Lymphoma -GCB)
# ASSAY NAME: CellTiterGlo cell viability assay
# Format: cell-based
# CONDITION SUMMARY: SU-DHL-6, Human DLBCL-GCB
pIC50: −log10 of the molar value.
PROPERTY: pIC50

>>> recorded_measurement("Cc1cccc(/C=N/Nc2cc(N3CCOCC3)nc(OCCc3ccccn3)n2)c1")
7.10
